Assay: in vitro
Set-up: Viability of infected HeLa host cells, resazurin conversion, bulk resorufin fluorescence relative to DMSO
Conditions: human, hela cells; bulk resorufin, mean of 2
Kindly state viability at 28.5 h, 5 µM for each of the entries shown.
Answers are plain numbers, in %.

Example results:
{"columns": ["compound", "reported.value"],
 "data": [
  ["COc1ccc([C@H]2CN(Cc3ccccc3)[C@@H]3CCN(C(=O)Cc4ccccc4)C[C@H]23)cc1", 97.6],
  ["Cc1cc(C(=O)Nc2cccc(S(=O)(=O)N3CCOCC3)c2)sc1-c1ccccc1", 96.9]
]}

Quick request: viability at 28.5 h, 5 µM for each listed item, please.
1. O=C(O)/C(=N\c1cccc2ccccc12)c1ccccc1
2. Cc1cccc(N(C)S(=O)(=O)c2ccc(N3CCCNCC3)c3ccccc23)c1C [CBK004430C]
3. CCN(CC)CCNc1nc(-c2cccc(Cl)c2)nc2ccccc12 [CBK267265C]
4. COc1ccccc1N/C(=N\OCc1ccc(Cl)cc1Cl)c1nonc1N
5. N#Cc1c(Nc2cccc(C(F)(F)F)c2)sc(C(=O)c2ccc3c(c2)OCO3)c1N
6. Cc1cc2nc(-c3ccccn3)[nH]c2cc1C
7. CCC(Sc1nnc2c(n1)[nH]c1ccccc12)C(=O)N1c2ccccc2Sc2ccccc21 (stereo not drawn)

88.7
84.9
104
92.4
85.9
90.3
89.8

###

Assay: in vitro
Conditions: human, hela cells, % viability, bulk resorufin, single well
Kindly state viability at 28.5 h, 10 µM for each of the entries shown.
Give bare numbers, in %.

Example results:
{"columns": ["compound", "viability at 28.5 h, 10 µM [%]"],
 "data": [
  ["Cc1nc2ccc(NC(=O)Nc3cccc(-c4ccc5c(c4)COC4(CCNCC4)O5)c3)cc2o1", 101],
  ["COCCn1cc(C(=O)N2CCN(C)CC2C)c2ccccc21 (centres unmarked)", 102]
]}

Quick request: viability at 28.5 h, 10 µM for each listed item, please.
1. CCc1ccc(CN2CCN(Cc3cc(Br)ccc3O)CC2)cc1
2. O=C1NC(=O)C(=CNCCN2CCN(C(=O)c3ccccc3)CC2)C(=O)N1
3. COc1ccc2c(c1)COC1(CCN(C(=O)C3CCC3C(=O)O)CC1)O2 (centres unmarked)

1: 96.5; 2: 90.5; 3: 97.1

###

Assay: in vitro
Details: human, hela cells, % viability
Kindly state viability at 28.5 h, 10 µM for each of the entries shown.
Answers are plain numbers, in %.

Example results:
{"columns": ["molecule", "unit.tag", "viability at 28.5 h, 10 µM"],
 "data": [
  ["CSc1nnc2c(n1)OC(/C=C/c1ccccc1)N(C(C)=O)c1ccccc1-2 (centres unmarked) [CBK264453]", "%", 99.7],
  ["CC(C)c1nsc(NS(=O)(=O)c2cc(OCC(F)(F)F)ccc2OCC(F)(F)F)n1 [CBK051262]", "%", 106],
  ["O=C(O)C(=O)N1CCN(C(=O)c2cc3ccccc3[nH]2)CC1 [CBK288433]", "%", 107],
  ["Cc1cc(NS(=O)(=O)c2cccc(C(F)(F)F)c2)n(C)n1 [CBK067244]", "%", 94.1]
]}

Recorded viability at 28.5 h, 10 µM (molecule O=C(NC1CCCCC1)[C@H]1C=CCN1C(=O)c1ccccc1F [CBK283334] ): 85.6
